Biological target: T1, human Nectin-4 (human, UniProt Q96NY8 32-349)
T1 construct: a Gly32-Ser349 FLAG construct is described only under the SPR assay; also called PVRL4
T1 sequence (looked up): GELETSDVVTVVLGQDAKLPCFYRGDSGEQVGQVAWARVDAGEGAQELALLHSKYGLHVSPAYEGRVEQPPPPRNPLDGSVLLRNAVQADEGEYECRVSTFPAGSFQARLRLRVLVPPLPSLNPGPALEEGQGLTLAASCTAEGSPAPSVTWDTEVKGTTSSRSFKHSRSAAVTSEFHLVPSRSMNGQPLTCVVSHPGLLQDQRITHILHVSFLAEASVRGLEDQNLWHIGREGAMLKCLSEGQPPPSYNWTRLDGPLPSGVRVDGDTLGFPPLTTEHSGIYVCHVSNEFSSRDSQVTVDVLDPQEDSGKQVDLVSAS
Assay: FP competition, tracer SEQ ID NO 217
pKi: −log10 of the molar value. *1 amine or outer side, *2 acyl side, *3 side chain or, on linkers, in order; H or OH if unused. Bridges are numbered along the chain shown (N, C = ends). Where no end group is shown, it is not given here. [ ]: non-standard residue; d: D form. TATA = O=C(CC[*:1])N1CN(C(=O)CC[*:2])CN(C(=O)CC[*:3])C1; 1Nal = N[C@@H](Cc1cccc2ccccc12)C(=O)O; Hyp = O=C(O)[C@@H]1C[C@@H](O)CN1; hArg = N=C(N)NCCCC[C@H](N)C(=O)O
reported.metric: pKi

binder: HDSCPFGCM[dK]SWSWPIWCA (linker 4-8-18 via TATA) [BCY7276]
pKi: 6.49

(I) HDACPFGCMEGWSWPIWCA (linker 4-8-18 via TATA) [BCY3390]
(II) Ac-CP[1Nal][dD]CM[hArg]DWTTP[Hyp]WC (linker 1-5-15 via TATA) [BCY8176]
Please indicate which item has the smaller measured pKi: I versus II Label of pick, please.
I
